TEST DESCRIPTION: Pharmacokinetic profile of a SOMATULINE/DECAPEPTYL composition in beagle dogs (RIA of blood samples)
Format: in vivo
CONDITION INFO: dog, in vivo; TIME 13.04 days; beagle dogs; 0.15 ml Example 1 semisolid mixture injected; read-out: concentration in blood samples (RIA)

>  <MOLECULE>
CC(C)[C@@H]1NC(=O)[C@H](CCCCN)NC(=O)[C@@H](Cc2c[nH]c3ccccc23)NC(=O)[C@H](Cc2ccc(O)cc2)NC(=O)[C@@H](NC(=O)[C@H](N)Cc2ccc3ccccc3c2)CSSC[C@@H](C(=O)N[C@H](C(N)=O)[C@@H](C)O)NC1=O [SOMATULINE, lanreotide]

>  <VALUE UNITS>
ng/mL

>  <level at 312.96 h>
3.14

$$$$
